- method_summary: fission yeast growth modulation, primary screen, strain 972, OD600, 24 h, no modulator (AID 1090);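 note: basal condition with compound alone and no growth modifier present; test concentration not given here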
- run_conditions: S. pombe 972 growth, higher = more signal, called active from +8 up or from −8 down
Rule: y for z-score not less than -0.7, n for anything less.

Here's what some known entries look like.
{"compound": "CCOC(=O)[C@H](CC(C)C)NC(=O)CCC1CC(OC(=O)NCc2ccc3c(c2)OCO3)CC2(CCCC(COC(=O)NCCOC)O2)O1 (stereo partly specified)", "category": "y"}
{"compound": "COCC#Cc1ccc([C@@H]2N[C@H](C(=O)O)CC[C@H]2C)cc1", "category": "n"}
{"compound": "CCOC(=O)CCN1C(=O)[C@H]2[C@H]3[C@H](O)[C@H](O)CC(=NO[C@@H]4O[C@H](CO)[C@@H](O)[C@H](O)[C@H]4O)[C@H]3CC[C@H]2C1=O", "category": "y"}

Does z-score meet or surpass -0.7 for `COC(=O)CC=C[C@@H](C)[C@@H](C=NOC[C@@H](O)COCc1ccco1)NS(=O)(=O)c1ccc(C)cc1` ? y

Does z-score meet or surpass -0.7 for C=CCOCC1CN2[C@@H](CC[C@@H](C)[C@@H]2c2ccc(Br)cc2)C(=O)O1 (stereo partly specified) ? y

Does z-score meet or surpass -0.7 for `C=CC[C@@H]1C=C[C@H](Oc2ccc(C)cc2)[C@@H](COC(=O)NCc2cccc3ccccc23)O1` ? y

Does z-score meet or surpass -0.7 for `CC(=O)OC[C@H]1O[C@H](CC=NO[C@@H](C)c2cn([C@H](CO)Cc3ccccc3)nn2)C=C[C@@H]1OC(C)=O` ? y

Does z-score meet or surpass -0.7 for `CC=CC1=C(CO)[C@H](O)[C@H]2O[C@H]2[C@@H]1O` ? y

====

- method_summary: modulators of HCV replicon luciferase signal, primary screen, HCV replication inhibitor project, Huh7 cells, luciferase reporter (AID 1109);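 note: huh7 hepatoma cells harbouring a luciferase neomycin HCV replicon reporter; luciferase luminescence as measure of HCV replicon replication; test concentration not given here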
- run_conditions: 48 h, higher = more signal
Entries and their measured z-score follow.
Kindly provide the number alone.

Check out these entries, answers already filled in.
{"compound": "COC(=O)[C@@H]1CC[C@H](C)[C@@H](c2ccc(Br)cc2)N1C[C@@H](O)CN=[N+]=[N-]", "meas_value": -0.779}
{"compound": "O=C1[C@H]2[C@H]3[C@H](O)[C@H](O)CC(=NO[C@@H]4O[C@H](CO)[C@@H](O)[C@H](O)[C@H]4O)[C@@H]3CC[C@H]2C(=O)N1C1CCCCC1", "meas_value": -0.0851}
{"compound": "CCOC(=O)NN=C1C[C@@H](O)[C@@H](O)[C@@H]2[C@@H]3C(=O)N(CC)C(=O)[C@@H]3CC[C@H]12", "meas_value": 0.276}
{"compound": "CC(=O)OC[C@H]1O[C@H](CC=NOC(C)CN2CCCc3nc(C)c(C)cc32)C=C[C@@H]1OC(C)=O (some centres undefined)", "meas_value": -0.475}
{"compound": "COC(=O)CC=C[C@@H](C)[C@@H](C=NOC[C@@H](C)[C@H](OCc1ccccc1)C(C)C)OC", "meas_value": -0.759}
{"compound": "CC(=O)OC[C@H]1O[C@H](CC=NOC[C@@H](O)[C@H]2O[C@@H]3OC(C)(C)O[C@@H]3[C@H]2O)C=C[C@@H]1OC(C)=O", "meas_value": -0.041}
{"compound": "CCOC(=O)[C@H](CC(C)C)NC(=O)CCC1CC(OC(=O)NCCc2ccc(F)cc2)CC2(CCCC(COC(=O)NCc3cccc4ccccc34)O2)O1 (some centres undefined)", "meas_value": -0.893}
{"compound": "O=C(NN=C1C[C@@H](O)[C@@H](O)[C@@H]2[C@@H]3C(=O)N(c4ccc(F)cc4F)C(=O)[C@@H]3CC[C@H]12)OCc1ccccc1", "meas_value": -0.642}

Give the reported z-score for this compound. `COC(=O)[C@@H]1CC[C@H](C)[C@@H](c2ccc(C)cc2)N1C(=O)c1ccc(C=NOC[C@H]2O[C@H](c3ccccc3)C=C[C@@H]2Oc2ccc(OC)cc2)cc1` -0.739

Give the reported z-score for this compound. `O=C1[C@H]2[C@H]3[C@H](O)[C@H](O)CC(=NO[C@@H]4O[C@H](CO)[C@@H](O)[C@H](O)[C@H]4O)[C@@H]3CC[C@H]2C(=O)N1C[C@@H]1CCCO1` -0.682

Give the reported z-score for this compound. Cc1cc2c(nc1C)CCCCN2CC(O)CN1CCCc2nc(-c3ccc(Br)cc3)ccc21 (centres undefined) -0.116

Give the reported z-score for this compound. `CCN1C(=O)[C@H]2[C@H]3[C@H](O)[C@H](O)CC(=NNC(=O)OCc4ccccc4)[C@H]3CC[C@H]2C1=O` -0.0788

Give the reported z-score for this compound. `CC(C)CON=C1C[C@@H](O)[C@@H](O)[C@@H]2[C@@H]3C(=O)N([C@@H](C)c4ccccc4)C(=O)[C@@H]3CC[C@@H]12` -0.265

Give the reported z-score for this compound. `COc1ccc(COC(=O)NN=C2C[C@@H](O)[C@@H](O)[C@@H]3[C@@H]4C(=O)N(Cc5ccccc5)C(=O)[C@@H]4CC[C@@H]23)cc1` 0.605
